Test system: progesterone receptor (alkaline phosphatase expression in T47D human breast carcinoma cells)
Assay: Progesterone-dependent alkaline phosphatase expression assay (AP assay), agonistic and antagonistic mode
Type: cell-based
Conditions: 48 h, 100 nM compound alone, alkaline phosphatase induction, 100% = 1 nM Dydrogesterone, read-out: PS [100 nM] (% stimulation)
OBSERVED_PROPERTY: activation at 0.1 µM (%)
Numeric answer only, unit % assumed.

q: Supply activation at 0.1 µM value. Item: CCNC(=O)O/N=C/c1ccc(CCC[C@]23CC[C@@H]4[C@@H](C=CC5=CC(=O)CC[C@]54C)[C@@H]2CC[C@]3(OC(=O)OCC)C(C)=O)cc1 [No. 6]
a: 60

q: Supply activation at 0.1 µM value. Item: COc1cccc(CCC[C@]23CC[C@@H]4[C@@H](C=CC5=CC(=O)CC[C@]54C)[C@@H]2CC[C@@H]3C(C)=O)c1 [compound 25]
a: 12

q: Supply activation at 0.1 µM value. Item: CCNC(=O)O/N=C/c1ccc(CCC[C@]23CC[C@@H]4[C@@H](C=CC5=CC(=O)CC[C@]54C)[C@@H]2CC[C@@H]3C(C)=O)cc1 [No. 5]
a: 35

---

Biological target: bovine progesterone receptor (Bos taurus, UniProt F1N712)
Construct: uterus tissue as the source of progesterone receptor; tissue CEREP Progesterone receptor-814; host or cells: bovine uterus tissue (the cited method, Hurd & Moudgil 1988, used calf uterus)
Sequence (F1N712 1-914): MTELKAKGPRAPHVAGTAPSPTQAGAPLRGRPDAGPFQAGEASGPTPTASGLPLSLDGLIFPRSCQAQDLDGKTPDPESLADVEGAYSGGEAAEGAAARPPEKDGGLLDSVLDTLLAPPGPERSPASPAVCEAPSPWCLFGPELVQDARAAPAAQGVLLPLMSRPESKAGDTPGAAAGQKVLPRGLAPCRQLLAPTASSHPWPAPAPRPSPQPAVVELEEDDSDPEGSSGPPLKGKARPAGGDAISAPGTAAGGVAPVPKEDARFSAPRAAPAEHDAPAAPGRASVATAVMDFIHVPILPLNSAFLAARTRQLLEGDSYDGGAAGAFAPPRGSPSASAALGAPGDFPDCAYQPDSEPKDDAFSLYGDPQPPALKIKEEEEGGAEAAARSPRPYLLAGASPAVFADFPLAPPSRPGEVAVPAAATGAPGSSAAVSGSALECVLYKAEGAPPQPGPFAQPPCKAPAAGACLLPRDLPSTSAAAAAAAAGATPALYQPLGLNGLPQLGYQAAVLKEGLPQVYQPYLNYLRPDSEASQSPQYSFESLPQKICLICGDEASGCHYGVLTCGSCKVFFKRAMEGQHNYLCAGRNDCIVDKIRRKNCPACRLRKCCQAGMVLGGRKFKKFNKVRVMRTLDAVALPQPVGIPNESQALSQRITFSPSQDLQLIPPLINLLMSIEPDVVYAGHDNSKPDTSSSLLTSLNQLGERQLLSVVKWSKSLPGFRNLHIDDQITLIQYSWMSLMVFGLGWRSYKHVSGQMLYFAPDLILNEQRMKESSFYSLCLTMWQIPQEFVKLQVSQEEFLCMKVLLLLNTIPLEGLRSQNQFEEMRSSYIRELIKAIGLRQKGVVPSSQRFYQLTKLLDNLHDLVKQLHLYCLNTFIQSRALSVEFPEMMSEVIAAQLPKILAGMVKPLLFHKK
Assay: Progesterone receptor binding assay (CEREP, 3H-R5020 ligand, uterus tissue)
Settings: bovine PR; 3H-R5020 as ligand, uterus tissue as receptor source; read-out: Progesterone Receptor binding (pKi) (converted)
Experimental: The progesterone receptor (PR) binding assays were performed at CEREP (Celle I'Evescault, France). The binding to the bovine progesterone receptor (Assay Cat No: Progesterone receptor-814) was measured using 3H-R5020 as ligand and uterus tissue as the source of progesterone receptor. […] The results of the receptor binding assay are presented as the individual pKi values for the bovine PR which were determined by measuring the binding activity for a concentration range of each compound.
OBSERVED_PROPERTY: Ki
The reply should consist of the numeric value with the unit placed after it.

q: Supply Ki value. Item: CC(=O)[C@H]1CC[C@H]2[C@@H]3C=CC4=CC(=O)CC[C@@]4(C)[C@@H]3CC[C@]12CCCc1ccc(/C=N/O)cc1
a: 200 nM

q: Supply Ki value. Item: CC(=O)[C@H]1CC[C@H]2[C@@H]3CCC4=CC(=O)CC[C@@]4(C)[C@@H]3CC[C@]12CCCc1ccc(/C=N/O)cc1
a: 1000 nM

q: Supply Ki value. Item: CCNC(=O)O/N=C/c1ccc(CCC[C@]23CC[C@@H]4[C@@H](CCC5=CC(=O)CC[C@]54C)[C@@H]2CC[C@@H]3C(C)=O)cc1
a: 501 nM

q: Supply Ki value. Item: CC(=O)[C@H]1CC[C@H]2[C@@H]3C=CC4=CC(=O)CC[C@@]4(C)[C@@H]3CC[C@]12CCCc1ccc(C(N)=O)cc1
a: 200 nM

q: Supply Ki value. Item: CCNC(=O)O/N=C/c1ccc(CCC[C@]23CC[C@@H]4[C@@H](C=CC5=CC(=O)CC[C@]54C)[C@@H]2CC[C@@H]3C(C)=O)cc1
a: 200 nM

q: Supply Ki value. Item: CCNC(=O)O/N=C/c1ccc(CCC[C@]23CC[C@@H]4[C@@H](C=CC5=CC(=O)CC[C@]54C)[C@@H]2CC[C@]3(OC(=O)OCC)C(C)=O)cc1
a: 501 nM
